assay: Growth inhibition of human HT1080 cells after 72 hrs by MTT assay; assay type: functional, cell-based; details: HT-1080, 72 h
Measured attribute: IC50 (nM)

>>> endpoint_result("COC(=O)Nc1nc2cc(C(=O)c3cccs3)ccc2[nH]1")
140
>>> endpoint_result("COC(=O)Nc1nc2cc([Se]c3c(C)[nH]c4ccccc34)ccc2[nH]1")
270
>>> endpoint_result("COC(=O)Nc1nc2cc(Sc3c[nH]c4ccccc34)ccc2[nH]1")
880
>>> endpoint_result("COC(=O)Nc1nc2cc([Se]c3c(C)[nH]c4ccc(F)cc34)ccc2[nH]1")
1690
>>> endpoint_result("COC(=O)Nc1nc2cc(Sc3c(C)[nH]c4ccc(F)cc34)ccc2[nH]1")
3270
>>> endpoint_result("COC(=O)Nc1nc2cc(S(=O)(=O)c3c[nH]c4ccccc34)ccc2[nH]1")
2010
>>> endpoint_result("COC(=O)Nc1nc2cc(Sc3c[nH]c4ccc(Br)cc34)ccc2[nH]1")
1330
>>> endpoint_result("COC(=O)Nc1nc2cc([Se]c3c[nH]c4ccc(C#N)cc34)ccc2[nH]1")
950
>>> endpoint_result("COC(=O)Nc1nc2cc([Se]c3c[nH]c4ccc(Br)cc34)ccc2[nH]1")
2750
>>> endpoint_result("COC(=O)Nc1nc2cc([Se]c3c[nH]c4ccccc34)ccc2[nH]1")
130
>>> endpoint_result("COC(=O)Nc1nc2cc(Sc3c[nH]c4ccc(C#N)cc34)ccc2[nH]1")
620
>>> endpoint_result("COC(=O)Nc1nc2cc([S+]([O-])c3c[nH]c4ccccc34)ccc2[nH]1 (stereo not given)")
5240
>>> endpoint_result("COC(=O)Nc1nc2cc(Sc3c(C)[nH]c4ccccc34)ccc2[nH]1")
970
>>> endpoint_result("COC(=O)Nc1nc2cc([S+]([O-])c3c(C)[nH]c4ccccc34)ccc2[nH]1 (stereo not given)")
9850
>>> endpoint_result("COC(=O)Nc1nc2cc([S+]([O-])c3c[nH]c4ccc(C#N)cc34)ccc2[nH]1 (stereo not given)")
9430
>>> endpoint_result("COC(=O)Nc1nc2cc(Sc3c(C)[nH]c4ccc(Cl)cc34)ccc2[nH]1")
4130
>>> endpoint_result("COC(=O)Nc1nc2cc(S(=O)(=O)c3c[nH]c4ccc(Br)cc34)ccc2[nH]1")
3180
